Taken from patent US12404260B2.

- study_target: full-length MALT1 protein (Strep-MALT1(1-824)-His) (Homo sapiens, UniProt Q9UDY8)
- Sequence (Q9UDY8 1-824): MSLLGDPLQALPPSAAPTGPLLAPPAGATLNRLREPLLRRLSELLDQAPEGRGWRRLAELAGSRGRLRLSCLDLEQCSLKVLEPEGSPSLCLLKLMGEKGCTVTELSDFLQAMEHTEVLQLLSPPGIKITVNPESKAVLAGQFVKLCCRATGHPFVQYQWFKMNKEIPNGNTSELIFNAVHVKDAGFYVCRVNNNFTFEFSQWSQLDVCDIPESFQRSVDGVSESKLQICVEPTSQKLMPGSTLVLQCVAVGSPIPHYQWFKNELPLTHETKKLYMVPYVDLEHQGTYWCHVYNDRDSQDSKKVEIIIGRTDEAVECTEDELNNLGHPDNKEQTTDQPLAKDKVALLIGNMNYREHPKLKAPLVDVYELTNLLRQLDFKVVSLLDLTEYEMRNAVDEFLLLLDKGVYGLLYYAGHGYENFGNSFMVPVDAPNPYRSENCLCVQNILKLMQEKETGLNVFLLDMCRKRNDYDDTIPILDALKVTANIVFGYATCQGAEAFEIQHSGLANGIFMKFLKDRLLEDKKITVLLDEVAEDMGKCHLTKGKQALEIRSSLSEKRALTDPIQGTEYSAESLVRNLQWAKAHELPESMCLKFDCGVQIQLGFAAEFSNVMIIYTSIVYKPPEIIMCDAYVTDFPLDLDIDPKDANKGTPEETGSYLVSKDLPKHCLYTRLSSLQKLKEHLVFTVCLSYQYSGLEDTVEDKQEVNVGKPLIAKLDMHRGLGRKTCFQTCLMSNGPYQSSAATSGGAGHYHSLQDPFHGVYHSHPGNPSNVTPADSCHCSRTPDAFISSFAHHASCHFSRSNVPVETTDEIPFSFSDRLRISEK
endpoint_label: log10 IC50 (log10 of the value in nM)

compound	log10 IC50
CC[C@@H](OC)c1c(NC(=O)Nc2cnc(-n3nccn3)c(C(F)(F)F)c2)cnc(C)c1C#N (single isomer, unassigned)	1.48
[2H]C([2H])([2H])O[C@@H](C)c1c(NC(=O)Nc2cnc(-n3nccn3)c(C(F)(F)F)c2)cncc1OC (single isomer, unassigned)	3.01
CO[C@@H](C)c1c(NC(=O)Nc2cc(Cl)c(-n3nccn3)nc2C)cnc(C)c1C#N	2.04
COC(C)c1c(NC(=O)Nc2cnc(-n3nccn3)c(Cl)c2)cncc1OC1CC1 (racemic)	2.93
CNc1cncc(NC(=O)Nc2cnc(-n3nccn3)c(Cl)c2)c1C(C)OC (racemic)	3.26
COc1nc(-n2nccn2)c(Cl)cc1NC(=O)Nc1cnc(C)c(Cl)c1[C@@H](C)OC	1.70
